What TGI was measured for each of the following?
# Tested on: MCF7 breast
# assayDetails: NCI tumour cell line growth inhibition, 48 h

# compound, measuredTarget, TGI
rows = [
    ("CCOC(=O)Cc1ccc(Nc2nc3cc(C(F)(F)F)ccc3nc2C(=O)OCC)cc1", "MCF7 breast", "> 100 µM"),
    ("CC(C)(Cl)CCC1=C(Cl)C(=O)c2ccccc2C1=O", "MCF7 breast", "4.05 µM"),
    ("O=C(Sc1c(-c2ccccc2)c(=O)n(-c2ccccc2)c(=S)n1-c1ccccc1)c1ccc(Cl)cc1", "MCF7 breast", "> 100 µM"),
    ("CS(=O)(=O)c1ccc(N/N=C/c2c(-c3ccc(S(C)(=O)=O)cc3)[nH]c3ccc(F)cc23)cc1", "MCF7 breast", "> 50 µM"),
    ("CCOC(=O)c1ccc2c(c1)nc1n2C(c2c(F)cccc2F)SC1 (stereo not drawn)", "MCF7 breast", "74.6 µM"),
    ("CCc1ccc(C2=C/C(=C/c3ccc(Cl)cc3)C(=O)N2CCc2ccc(S(N)(=O)=O)cc2)cc1", "MCF7 breast", "7.99 µM"),
    ("CCOC(=O)/C(C#N)=C(/NS(=O)(=O)c1cc(C)c(Cl)cc1[S-])[n+]1ccc(N(C)C)cc1", "MCF7 breast", "> 100 µM"),
    ("CCN(Cc1ccc(F)cc1)c1ccc(CO)c(Cl)c1", "MCF7 breast", "7.05 µM"),
    ("COc1cc2[nH]c(C(=O)c3cc(OC)c(OC)c(OC)c3)c(N)c2cc1C#CCO", "MCF7 breast", "> 100 µM"),
    ("CCOC(=O)C(NNS(=O)(=O)c1ccc(C)cc1)S(=O)(=O)C(F)(F)C(F)(F)C(F)(F)C(F)(F)F (stereo not drawn)", "MCF7 breast", "> 100 µM"),
]

Here are 2 compounds. What values of TGI were reported for them?
1. CCc1cc(-c2nsc(=O)o2)c(S(=O)(=O)CC)s1
2. COC(=O)c1ccccc1C1CN=NC12Cc1c(C)cc(C)cc1C2=O (stereo not drawn)

Response:
["> 100 µM", "> 100 µM"]

----------
# Test system: UACC-62 melanoma
# assayDetails: NCI tumour cell line growth inhibition, 48 h
quantityMeasured: TGI (µM)
Answers are plain numbers, in µM.

These recorded examples may help you get a feel for the data.
# smilesRepr, unitOfMeasurement, TGI
records = [
    ("COc1cccc(-c2nn(-c3ccccc3)cc2-c2ccnc(NCCNS(=O)(=O)c3ccc(C(F)(F)F)cc3)c2)c1", "µM", 35),
    ("CC[C@H](C)c1occ2c(O)c(C(=O)O)c(=O)cc-2c1C", "µM", 37.4),
    ("O=S(=O)(NCCNc1cc(-c2cn(-c3ccccc3)nc2-c2cccc(O)c2)ccn1)c1ccc(C(F)(F)F)cc1", "µM", 3.98),
]

Turning now to a further compound:
Prompt: What value of measured TGI is listed for CCc1ccccc1NC(=O)/C(CC(=O)c1c(C)n([O-])c2ccccc2[n+]1=O)=N\NS(=O)(=O)c1ccc(C)cc1 ?
Response: 67

----------
# System: CAKI-1 renal
# assayDetails: NCI tumour cell line growth inhibition, 48 h
Kindly supply the reported TGI values for the records listed here.

Some solved entries appear below for comparison.
# compound, measuredTarget, TGI
rows = [
    ("O=C(OCc1ccccc1)N1CCNCCNCC1", "CAKI-1 renal", "> 100 µM"),
    ("O=C(NNC(=S)Nc1ccccc1)C12CC3CC(CC(C3)C1)C2", "CAKI-1 renal", "> 100 µM"),
    ("CSc1ccc(-c2cn3ccsc3n2)c(O)c1", "CAKI-1 renal", "> 100 µM"),
    ("CN1C(=O)n2c(nc3ccccc32)C(N=[N+]=[N-])(N=[N+]=[N-])C1=O (stereo unspecified)", "CAKI-1 renal", "> 100 µM"),
    ("C/C(CC(=O)CCCC(=O)Nc1ccc(Cl)cc1Cl)=N/NC(=O)CC#N", "CAKI-1 renal", "> 100 µM"),
]

Give measured TGI for every item shown.
1. COC(=O)[C@@H]1O[C@]12C(CO[Si](C)(C)C(C)(C)C)OC(n1ccc(=O)[nH]c1=O)C2O[Si](C)(C)C(C)(C)C (stereo partly specified)
2. O=C(NO)c1cccc(OCc2ccc(Br)cc2)c1
3. O=C1C2CC3C(CC2C(=O)[N]1[Sn]([c]1ccccc1)([c]1ccccc1)[c]1ccccc1)C1(Cl)C(Cl)=C(Cl)C3(Cl)C1(Cl)Cl (stereo unspecified)

Response:
1: 72 µM; 2: 15 µM; 3: 0.275 µM

Values compiled from PubChem BioAssay (NCI).
